The values you see were collected from PubChem BioAssay (NCI).

# System: NCI-H460 lung
# METHOD NOTES: NCI tumour cell line growth inhibition, 48 h

COMPOUND	TGI
C=CCc1cccc2cc(C(=O)Nc3ccccc3)c(=N)oc12	> 100 µM
COc1nc(C#CC2(O)CCCCC2)nc(OC)n1	78.6 µM
OCC(O)C(Cl)CCl (stereo not drawn)	> 100 µM
CCSc1nc2cccc([N+](=O)[O-])c2n1CC	> 100 µM
C1=CC=C2NCCCCCCCNC3=CC=CC=CC3=NCCCCCCCN=C2C=C1	> 100 µM
O=c1c2nc3ccccc3c(=O)n2ncn1-c1ccccc1Cl	> 100 µM
COC(=O)CC1NC(=O)[C@@H]1C(C)O (stereo partly drawn)	> 100 µM
Fc1ccc(C(OCCN2CCC3CCC(C2)N3C/C=C/c2ccco2)c2ccc(F)cc2)cc1 (stereo not drawn)	24.5 µM
CC1OC(n2c3ccccc3c3c4c(c5c6ccccc6[nH]c5c32)C(=O)N(CCN[C@@H]2CCC[C@H]2N)C4=O)CC(O)C1O (stereo partly drawn)	1.57 µM
Cc1ccc(N(C(=O)Nc2ccccc2)C2=NCC(C)S2)cc1C (stereo not drawn)	44.6 µM
CC(C)(C)OC(=O)N1CCC(C(=O)O)CC1	> 100 µM
N#CCCN(CCCN(CCCN(C(=O)Nc1ccccc1)c1ccccc1)C(=O)Nc1ccccc1)C(=O)Nc1ccccc1	> 8.75 µM
CN1CNc2nc(N)n(C)c(=O)c2C1	> 10 µM
CN(C)CCNC(=O)c1cc([N+](=O)[O-])cc2c1Oc1ccccc1O2	> 100 µM
Cc1nn(C(=O)Cc2ccccc2)c2c1C(c1ccc(O)cc1O)SC(N)=N2 (stereo not drawn)	> 100 µM
CCN(CC)CCOc1ccc(CCc2cc(OC)c(OC)c(OC)c2)cc1	> 100 µM
COC(=O)c1ccccc1OCc1cc(=O)oc2ccc(C)cc12	> 100 µM
C/C=C\C(CC(=O)NCCC1CN(S(=O)(=O)c2ccc(C)cc2)c2ccccc21)CC(=O)OC (stereo not drawn)	> 100 µM
CCOC(=O)c1cn2c(n1)sc1c(Cl)c(Cl)ccc12	> 100 µM
COc1cc2ccccc2oc1=O	> 100 µM
CCOP(=O)(OCC)C(Nc1ccc(Br)cc1)c1cccc([N+](=O)[O-])c1 (stereo not drawn)	29.3 µM
CCn1c(SCC(=O)NNC(=S)Nc2ccc([N+](=O)[O-])cc2)nc2ccccc2c1=O	> 100 µM
CC(=O)OCC1OC(OC2CC3C(C)(C)C(OC(C)=O)CC[C@]3(C)C3CCC45CC4(CCC5[C@@H](C)C[C@H](O)C(O)C(C)(C)O)[C@]23C)C(O)C(O)C1O (stereo partly drawn)	> 10 µM
CCC1CN2C(=N1)c1ccccc1-c1cc(Cl)ccc12 (stereo not drawn)	10.5 µM
CCOP(=O)(OCC)C(C)(CC)N/C(=N/C(NC(C)=O)(C(F)(F)F)C(F)(F)F)NC1=NC(C(F)(F)F)(C(F)(F)F)N=C(C(F)(F)F)O1 (stereo not drawn)	> 100 µM
O=C1CSC(c2ccc([N+](=O)[O-])cc2)N1c1ccc(-n2c(-c3ccccc3)nc3ccccc3c2=O)cc1 (stereo not drawn)	> 100 µM
Cc1ccc(C(CC(=O)c2ccccc2)C2C(=O)NC(=O)NC2=O)cc1 (stereo not drawn)	> 100 µM
Cc1cc(Cl)ccc1Nc1nc(C(F)(F)F)ccc1C(=O)N/N=C/c1ccc(Cl)cc1	9.08 µM
